Biological target: intracellular CK2α (Homo sapiens, UniProt P19784)
Sequence (P19784 whole entry): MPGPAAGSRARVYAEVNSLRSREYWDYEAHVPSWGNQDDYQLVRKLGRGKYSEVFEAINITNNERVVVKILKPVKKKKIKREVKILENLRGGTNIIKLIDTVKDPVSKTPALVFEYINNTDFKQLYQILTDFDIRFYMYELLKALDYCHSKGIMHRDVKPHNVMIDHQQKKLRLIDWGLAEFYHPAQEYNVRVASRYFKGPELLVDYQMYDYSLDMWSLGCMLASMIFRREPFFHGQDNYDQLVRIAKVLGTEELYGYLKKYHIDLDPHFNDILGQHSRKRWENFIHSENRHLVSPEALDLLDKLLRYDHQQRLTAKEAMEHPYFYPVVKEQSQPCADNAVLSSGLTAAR
Assay: Cell-based NanoBRET assay for inhibitor binding to intracellular CK2α
Conditions: HCT116 cells transiently transfected with CSNK2A2-NanoLuc fusion vector; Tracer K-5; 2 h; read-out: Assay 3: NanoBRET ™ assay for binding to intracellular CK2α
Procedure: This assay used the NanoBRET™ System (Promega), an energy transfer technique designed to measure molecular proximity in living cells. The assay measured the apparent affinity of test compounds by competitive displacement of a NanoBRET™ tracer reversibly bound to a NanoLucR luciferase CK2α fusion protein in cells. A fixed concentration of tracer was added to cells expressing the desired NanoLucR-CK2α fusion protein to generate a BRET reporter complex. […]

| compound | readingUnit | IC50 |
| --- | --- | --- |
| N#CCc1cc(CNCCCCOC2CN(c3cc(-c4cnoc4)cc4[nH]ncc34)C2)cc(C(F)(F)F)c1 [Example 145] | µM | 1.73 |
| OCc1cc(F)cc(CNCCCCOC2CN(c3cc(-n4cnnc4)cc4[nH]ncc34)C2)c1 [Example 125] | µM | 49.2 |
| OCc1cc(Cl)cc(CNCCCCOC2CN(c3cc(-n4cnnc4)cc4[nH]ncc34)C2)c1 [Example 130] | µM | 15.4 |
| c1cc2[nH]c(CNCCCCOCCOc3cc(-n4cnnc4)cc4[nH]ncc34)cc2cc1OC1CCC1 [Example 118] | µM | 0.204 |
| Fc1cc(CNCCCCOC2CN(c3cc(-c4cnoc4)cc4[nH]ncc34)C2)ccc1OC(F)(F)F [Example 135] | µM | 1.83 |
| FC(F)(F)Oc1ccc(CNCCCCOCCNc2cc(-n3cnnc3)cc3[nH]nnc23)cc1Cl [Example 126] | µM | 3.63 |
| O=C(CCNCc1ccc(OC(F)(F)F)c(Cl)c1)NCCCNc1cc(-c2ccncc2)c(Cl)c2[nH]ncc12 [Example 158] | µM | 0.738 |
| O=C(CCNCc1ccc(OC(F)(F)F)c(Cl)c1)NCCCNc1cc(-c2ncns2)cc2[nH]ncc12 [Example 183] | µM | 0.145 |

###

pIC50: −log10 of the molar value.
The compounds below have reported pIC50 for CLK2 (Homo sapiens, UniProt P49760).
reportedMetric: pIC50

| substanceSmiles | testedSystem | valueReported |
| --- | --- | --- |
| N#CCc1cc(CNCCCCOC2CN(c3cc(-c4cnoc4)cc4[nH]ncc34)C2)cc(C(F)(F)F)c1 | CLK2 (Homo sapiens, UniProt P49760) | 6.73 |
| N#CCc1cc(F)cc(CNCCCCOC2CN(c3cc(-c4ccnnc4)cc4[nH]ncc34)C2)c1 | CLK2 (Homo sapiens, UniProt P49760) | 5.57 |
| O=C(CCNCc1ccc(OC(F)(F)F)c(Cl)c1)NCCCNc1cc(-c2cc[nH]c(=O)n2)cc2[nH]ncc12 | CLK2 (Homo sapiens, UniProt P49760) | 5.19 |
| N#CCc1cc(CNCCCCOC2CN(c3cc(-c4cnoc4)cc4[nH]ncc34)C2)cc(OC(F)(F)F)c1 | CLK2 (Homo sapiens, UniProt P49760) | 6.82 |

###

Target: CLK2 (Homo sapiens, UniProt P49760)
Sequence (P49760 whole entry): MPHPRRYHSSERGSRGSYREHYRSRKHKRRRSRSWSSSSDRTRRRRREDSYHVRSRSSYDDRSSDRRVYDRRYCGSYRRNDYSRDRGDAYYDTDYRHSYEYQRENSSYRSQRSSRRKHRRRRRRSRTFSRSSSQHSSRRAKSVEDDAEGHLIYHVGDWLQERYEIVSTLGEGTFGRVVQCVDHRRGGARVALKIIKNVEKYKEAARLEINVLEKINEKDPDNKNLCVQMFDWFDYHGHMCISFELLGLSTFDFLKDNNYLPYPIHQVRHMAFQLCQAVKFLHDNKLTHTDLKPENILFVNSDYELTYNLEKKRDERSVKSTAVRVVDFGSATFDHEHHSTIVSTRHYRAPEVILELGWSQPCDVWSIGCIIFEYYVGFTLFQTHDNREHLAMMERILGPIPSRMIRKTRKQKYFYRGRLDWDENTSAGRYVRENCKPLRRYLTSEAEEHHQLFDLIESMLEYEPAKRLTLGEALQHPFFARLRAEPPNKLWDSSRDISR
pIC50: −log10 of the molar value.
Answer No if pIC50 is under 6, and Yes if it is 6 or more.

| compound | classLabel |
| --- | --- |
| O=C(CCNCc1ccc(-c2ccccc2)c(Cl)c1)NCCC(=O)Nc1cc(-n2cnnc2)cc2[nH]ncc12 [Example 12] | Yes |
| FC(F)(F)c1ccc2[nH]c(CNCCCCOCCNc3cc(-n4cnnc4)cc4[nH]ncc34)cc2c1 [Example 49] | Yes |
| Cn1c(CNCCC(=O)NCCCNc2cc(-n3cnnc3)cc3[nH]ncc23)cc2cc(C(F)(F)F)ccc21 [Example 38] | Yes |
| Nc1cc(-c2cc(NCCCNC(=O)CCNCc3ccc(OC(F)(F)F)c(Cl)c3)c3cn[nH]c3c2)ccn1 [Example 184] | Yes |
| FC(F)(F)Oc1ccc(CNCCCCNCCNc2cc(-n3cnnc3)cc3[nH]ncc23)cc1Cl [Example 24] | Yes |
| O=C(CCNCc1ccc(OC(F)(F)F)c(Cl)c1)NCCCNCc1cc(-n2cnnc2)cc2[nH]ncc12 [Example 172] | No |
| c1cc2[nH]c(CNCCCCOCCOc3cc(-c4cnoc4)cc4[nH]ncc34)cc2cc1OC1CCC1 [Example 54] | Yes |
| FC(F)(F)c1ccc2[nH]c(CNCCCCOC3CN(c4cc(-c5cnoc5)cc5[nH]ncc45)C3)cc2c1 [Example 139] | Yes |
| OCCOc1cc(CNCCCCOCCNc2cccc3[nH]ncc23)cc(OC(F)(F)F)c1 [Example 202] | No |
| FC(F)(F)Oc1ccc(CNCCCCOC2CN(c3cc(-c4ccnnc4)cc4[nH]nnc34)C2)cc1Cl [Example 150] | No |
| O=C(CCNCc1ccc(-c2ccccc2)c(Cl)c1)NCCCNc1cc(-c2ccncn2)cc2[nH]ncc12 [Example 75] | Yes |
| N#CCc1cc(F)cc(CNCCCCOC2CN(c3cc(-n4cnnc4)cc4[nH]ncc34)C2)c1 [Example 103] | Yes |
| N#Cc1cc(CNCCC(=O)NCCCNc2cc(-n3cnnc3)cc3[nH]ncc23)ccc1OC(F)(F)F [Example 46] | Yes |
| O=C(CCNCc1cccc(CCO)c1)NCCCNc1cc(-n2cnnc2)cc2[nH]ncc12 [Example 40] | Yes |
